Measured values drawn from patent US20210388087A1 for this set.

- TARGET_OR_TEST_SYSTEM: Human CD137 ECD (human)
- Sequence (chain, as listed by the source limits assumed): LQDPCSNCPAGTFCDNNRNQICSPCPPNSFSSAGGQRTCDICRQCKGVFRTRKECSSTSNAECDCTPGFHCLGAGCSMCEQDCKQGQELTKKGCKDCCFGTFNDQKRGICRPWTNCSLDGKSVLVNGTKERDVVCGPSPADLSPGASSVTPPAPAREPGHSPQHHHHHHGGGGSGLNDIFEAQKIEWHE
- EXPERIMENTAL_DETAILS: single mutant vs template dBBDu183H
For each record, write down the corresponding fold change of affinity.
Give just the number in fold; leave the unit off.

Qu. // query fold change of affinity value for entry H183/L072 VH N31E (antibody, name in Kabat numbering, V domains shown) VH: QVQLVESGGGLVQPGRSLRLSCAASGFTFSEAWMHWVRQAPGKGLEWVAQIKDKGNAYAAYYAPSVKGRFTISRDDSKNSIYLQMNSLKTEDTAVYYCHYVHYASASTVLPAFGVDAWGQGTTVTVSS VL: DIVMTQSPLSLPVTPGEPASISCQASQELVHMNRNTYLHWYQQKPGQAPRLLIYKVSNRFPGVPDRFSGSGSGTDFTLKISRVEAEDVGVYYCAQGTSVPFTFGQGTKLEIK
Ans. 0

Qu. // query fold change of affinity value for entry H183/L072 VH K52P (antibody, name in Kabat numbering, V domains shown) VH: QVQLVESGGGLVQPGRSLRLSCAASGFTFSNAWMHWVRQAPGKGLEWVAQIPDKGNAYAAYYAPSVKGRFTISRDDSKNSIYLQMNSLKTEDTAVYYCHYVHYASASTVLPAFGVDAWGQGTTVTVSS VL: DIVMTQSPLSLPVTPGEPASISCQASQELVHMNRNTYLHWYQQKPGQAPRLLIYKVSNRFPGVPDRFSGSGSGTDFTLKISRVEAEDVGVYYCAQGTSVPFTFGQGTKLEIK
Ans. 0
